Each item that follows carries a reported IC50 at 24 h.
Assay: Cytotoxicity against HFB4 cells assessed as decrease in cell viability after 24 hrs by MTT assay
Assay type: toxicity, cell-based
Conditions: human

smiles_text: O=C(Nc1ccccc1)c1nn(-c2ccccc2)/c(=N/NC(=O)C23CC4CC(CC(C4)C2)C3)s1
censoring_operator: =
IC50 at 24 h (µM): 218
--
smiles_text: O=c1[nH]cc(F)c(=O)[nH]1
censoring_operator: >
IC50 at 24 h (µM): 5000

* * *

Property: IC50; scope: individual molecules
Assay: Cytotoxicity against human A549 cells assessed as decrease in cell viability after 24 hrs by MTT assay
Assay type: functional, cell-based
Details: A549, 24 h

smiles_text: O=c1[nH]cc(F)c(=O)[nH]1
IC50: 2900 µM
--
smiles_text: O=C(Nc1ccccc1)c1nn(-c2ccccc2)/c(=N/NC(=O)C23CC4CC(CC(C4)C2)C3)s1
IC50: 87 µM
